Hey, just so you know, these numbers are from ChEMBL document CHEMBL5375990.

# assay method text: Microsomal stability in human liver microsome assessed as half life
# Type: ADME, microsomes
# experimental parameters: liver microsomes
readout type: half-life (h)

(a) COc1ccc(C(=O)C2CCN(C(=O)c3cc(C)c(C(=O)NC4CCN(Cc5ccc(OC)c(F)c5)CC4)cn3)CC2)cc1
(b) COc1ccc(C(=O)C2CCN(C(=O)c3ccc(C(=O)N[C@@H]4CCN(Cc5ccc(C#N)cc5)C[C@@H]4F)cn3)CC2)cc1
(c) COc1ccc(C(=O)C2CCN(C(=O)c3cc(C)c(C(=O)NC4CCN(Cc5ccc(C#N)cc5)CC4)cn3)CC2)cc1
Rank order required: half-life, descending. Please, when replying, give the labels in the order that was requested.
b, c, a
(b: 8.23 h, c: 1.72 h, a: 1.12 h)
